Value source: paper PMC5041495

subject-of-test: alpha-thrombin (human, UniProt P00734;P00734 328-363;364-622)
experiment-description: SPRi
observation-type: Kd (pM)
# output: bare number, implied unit pM

Query: Kd; subject: GGGAACAAAGCUGAAGUACUUACCC (structured_RNA, 2'-F pyrimidines; PS2 at 3'-phosphate of U17) [AF113-18]
4.5
